# System: PAMPA
# run_parameters: Papp (x 10^-6 cm/s) – UV Detection / [row 24]; UV Detection
endpoint_name: Papp
Respond with a number, then the unit of measure.

query: Fill in the recorded Papp for this compound, with PAMPA as test system: CCCCC[C@@H]1OC(=O)[C@@H](C)N(C)C(=O)[C@H](CCCCC)OC(=O)[C@@H](C)N(C)C(=O)[C@H](CCCCC)OC(=O)[C@@H](C)N(C)C(=O)[C@H](CCCCC)OC(=O)[C@@H](C)N(C)C1=O [Compound C1.4, ent-verticilide]
result: 6.05 ×10⁻⁶ cm/s

* * *

# Test system: PAMPA
# run_parameters: Papp (x 10^-6 cm/s) – ELSD Detection / [row 6]; ELSD Detection
Mark each entry 1.0 if its Papp sits below 6 ×10⁻⁶ cm/s, and 0.0 for all others.

query: Please state whether Papp is below 6 ×10⁻⁶ cm/s for CCCCC[C@@H]1OC(=O)[C@@H](C)N(C)C(=O)[C@H](CCCCC)OC(=O)[C@@H](C)N(C)C(=O)[C@H](CCCCC)OC(=O)[C@@H](C)N(C)C(=O)[C@H](CCCCC)OC(=O)[C@@H](C)N(C)C1=O [Compound C1.4, ent-verticilide]
result: 0.0

query: Please state whether Papp is below 6 ×10⁻⁶ cm/s for CCCCC[C@@H]1OC(=O)[C@@H](C)N(C)C(=O)[C@H](CCCCC)OC(=O)[C@@H](C)N(C)C(=O)[C@H](CCCCC)OC(=O)[C@@H](C)N(C)C(=O)[C@H](CCCCC)OC(=O)[C@@H](C)N(C)C(=O)[C@H](CCCCC)OC(=O)[C@@H](C)N(C)C1=O
result: 1.0

query: Please state whether Papp is below 6 ×10⁻⁶ cm/s for CCCCC[C@@H]1OC(=O)[C@@H](C)N(C)C(=O)[C@H](CCCCC)OC(=O)[C@@H](C)N(C)C1=O
result: 1.0

query: Please state whether Papp is below 6 ×10⁻⁶ cm/s for CCCCC[C@@H]1OC(=O)[C@@H](C)N(C)C(=O)[C@H](CCCCC)OC(=O)[C@@H](C)N(C)C(=O)[C@H](CCCCC)OC(=O)[C@@H](C)N(C)C1=O [Compound C1.3, ent-verticilide B1]
result: 1.0

query: Please state whether Papp is below 6 ×10⁻⁶ cm/s for CCCCC[C@@H]1OC(=O)[C@@H](C)N(C)C1=O
result: 0.0

query: Please state whether Papp is below 6 ×10⁻⁶ cm/s for CCCCC[C@@H]1OC(=O)[C@@H](C)N(C)C(=O)[C@H](CCCCC)OC(=O)[C@@H](C)N(C)C(=O)[C@H](CCCCC)OC(=O)[C@@H](C)N(C)C(=O)[C@H](CCCCC)OC(=O)[C@@H](C)N(C)C(=O)[C@H](CCCCC)OC(=O)[C@@H](C)N(C)C(=O)[C@H](CCCCC)OC(=O)[C@@H](C)N(C)C1=O
result: 1.0

* * *

# System: PAMPA
# run_parameters: Papp (x 10^-6 cm/s) / experiment 7; UV detection
endpoint_name: Papp (×10⁻⁶ cm/s)
Quick note: give the figure in ×10⁻⁶ cm/s, leave out the unit.

query: Any idea what Papp was measured for CCCCC[C@H](OC(=O)[C@@H](C)N(C)C(=O)[C@H](CCCCC)OC(=O)[C@@H](C)N(C)C(=O)[C@H](CCCCC)OC(=O)[C@@H](C)N(C)C(=O)[C@H](CCCCC)OC(=O)[C@@H](C)N(C)C(=O)[C@H](CCCCC)OC(=O)[C@@H](C)N(C)C(=O)[C@H](CCCCC)OC(=O)[C@@H](C)N(C)C(=O)OC(C)(C)C)C(=O)OCc1ccccc1 [Compound L1.6] ?
result: 0.41

query: Any idea what Papp was measured for CCCCC[C@H](OC(=O)[C@@H](C)N(C)C(=O)OC(C)(C)C)C(=O)OCc1ccccc1 [Compound L1.1] ?
result: 4.1

query: Any idea what Papp was measured for CCCCC[C@H](OC(=O)[C@@H](C)N(C)C(=O)[C@H](CCCCC)OC(=O)[C@@H](C)N(C)C(=O)[C@H](CCCCC)OC(=O)[C@@H](C)N(C)C(=O)OC(C)(C)C)C(=O)OCc1ccccc1 [Compound L1.3] ?
result: 3.62

query: Any idea what Papp was measured for CCCCC[C@H](OC(=O)[C@@H](C)N(C)C(=O)[C@H](CCCCC)OC(=O)[C@@H](C)N(C)C(=O)OC(C)(C)C)C(=O)OCc1ccccc1 [Compound L1.2] ?
result: 3.9

query: Any idea what Papp was measured for CCCCC[C@H](OC(=O)[C@@H](C)N(C)C(=O)[C@H](CCCCC)OC(=O)[C@@H](C)N(C)C(=O)[C@H](CCCCC)OC(=O)[C@@H](C)N(C)C(=O)[C@H](CCCCC)OC(=O)[C@@H](C)N(C)C(=O)[C@H](CCCCC)OC(=O)[C@@H](C)N(C)C(=O)OC(C)(C)C)C(=O)OCc1ccccc1 [Compound L1.5] ?
result: 1.61

query: Any idea what Papp was measured for CCCCC[C@H](OC(=O)[C@@H](C)N(C)C(=O)[C@H](CCCCC)OC(=O)[C@@H](C)N(C)C(=O)[C@H](CCCCC)OC(=O)[C@@H](C)N(C)C(=O)[C@H](CCCCC)OC(=O)[C@@H](C)N(C)C(=O)OC(C)(C)C)C(=O)OCc1ccccc1 [Compound L1.4] ?
result: 1.63
